Items are presented alongside their recorded fold repression.
measuredTarget: T1, ECF17_1458
T1 chain: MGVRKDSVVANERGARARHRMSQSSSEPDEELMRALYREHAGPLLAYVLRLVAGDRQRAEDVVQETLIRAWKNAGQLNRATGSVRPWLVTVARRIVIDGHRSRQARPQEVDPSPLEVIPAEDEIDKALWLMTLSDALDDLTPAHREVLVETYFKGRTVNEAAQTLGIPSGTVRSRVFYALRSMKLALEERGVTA
No unit in the answer, please; the number alone is enough.

binder	attributeMeasured	measValue
AS03_1244 (protein) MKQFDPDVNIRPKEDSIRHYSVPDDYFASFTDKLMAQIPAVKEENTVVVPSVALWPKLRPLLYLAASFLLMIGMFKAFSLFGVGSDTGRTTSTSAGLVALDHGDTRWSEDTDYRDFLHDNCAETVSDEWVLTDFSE	fold repression	1.62
AS37_2513 (protein) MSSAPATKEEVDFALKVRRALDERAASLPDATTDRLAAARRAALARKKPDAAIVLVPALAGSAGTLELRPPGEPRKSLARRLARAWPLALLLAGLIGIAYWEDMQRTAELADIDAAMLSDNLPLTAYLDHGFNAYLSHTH	fold repression	5.87
AS15_524 (protein) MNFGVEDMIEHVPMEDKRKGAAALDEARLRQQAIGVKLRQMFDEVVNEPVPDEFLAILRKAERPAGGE	fold repression	9.33
AS35_3582 (protein) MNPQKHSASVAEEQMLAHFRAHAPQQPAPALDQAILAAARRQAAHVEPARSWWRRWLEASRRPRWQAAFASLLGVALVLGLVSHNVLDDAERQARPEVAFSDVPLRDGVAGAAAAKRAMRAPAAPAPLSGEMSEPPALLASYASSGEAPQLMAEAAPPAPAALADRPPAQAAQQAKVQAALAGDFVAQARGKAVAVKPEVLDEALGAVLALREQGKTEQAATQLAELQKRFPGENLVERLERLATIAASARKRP	fold repression	7.06
AS20_992 (protein) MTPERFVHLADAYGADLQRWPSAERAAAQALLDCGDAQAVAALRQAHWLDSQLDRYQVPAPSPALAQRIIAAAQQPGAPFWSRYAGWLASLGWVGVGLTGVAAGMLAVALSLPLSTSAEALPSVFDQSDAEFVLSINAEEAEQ	fold repression	1.5

Turning now to a further binder:
Which value of fold repression has been reported for AS30_35 (protein) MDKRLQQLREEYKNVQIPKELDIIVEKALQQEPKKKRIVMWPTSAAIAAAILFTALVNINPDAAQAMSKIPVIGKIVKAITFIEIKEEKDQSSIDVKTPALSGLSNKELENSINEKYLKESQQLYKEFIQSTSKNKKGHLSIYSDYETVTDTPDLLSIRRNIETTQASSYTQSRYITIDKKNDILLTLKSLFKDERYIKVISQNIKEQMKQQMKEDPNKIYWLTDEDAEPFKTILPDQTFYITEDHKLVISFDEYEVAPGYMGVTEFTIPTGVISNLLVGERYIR in the records?
1.52
